tested on: SF-295 CNS; assay: NCI tumour cell line growth inhibition, 384-well format; in the data active = GI50 below about 0.43 µM; inactive = the rest
Possible outcomes: YES (active), NO (inactive)

COC(=O)N1c2ccc3c(nc(Cc4ccccc4)n3[C@H]3CCC[C@H](C(=O)O)C3)c2CC[C@@H]1C    NO
NC(=O)[C@@H](CCC(F)(F)F)N(Cc1ccc(-c2ncon2)cc1F)S(=O)(=O)c1ccc(Cl)cc1    NO
COC(=O)c1ccc([C@H]2c3[nH]c4ccccc4c3C[C@H](C(=O)OC)N2C(=O)CCl)cc1    YES
Cc1ccncc1N1CCN(c2ccnc(Cl)c2)C1=O    NO
